# experimental.target: T1, recombinant his-tag human LAG3-ECD protein (human, UniProt P18627 23-450)
# T1 construct: extracellular domain; not shown: his tag
# T1 sequence (looked up): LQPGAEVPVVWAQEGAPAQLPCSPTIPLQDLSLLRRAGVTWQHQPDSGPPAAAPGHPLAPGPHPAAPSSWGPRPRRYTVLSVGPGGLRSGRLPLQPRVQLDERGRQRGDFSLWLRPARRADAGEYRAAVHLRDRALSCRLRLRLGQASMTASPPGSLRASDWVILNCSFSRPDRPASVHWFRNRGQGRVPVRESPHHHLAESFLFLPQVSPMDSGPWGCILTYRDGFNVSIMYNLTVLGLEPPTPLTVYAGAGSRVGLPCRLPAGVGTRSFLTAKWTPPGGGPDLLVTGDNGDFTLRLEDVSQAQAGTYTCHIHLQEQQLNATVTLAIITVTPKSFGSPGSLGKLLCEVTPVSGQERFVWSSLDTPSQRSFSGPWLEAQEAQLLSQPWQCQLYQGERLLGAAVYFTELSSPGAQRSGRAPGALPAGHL
# protocol.text: SPR Biacore T200, capture method as Example 2.7
recorded.metric: pKd
Note on pKd: it is the negative log10 of concentration, concentration in mol/L.

{"binder": "147H 3793 (antibody, V domains shown) VH: EVQLVQSGAEVKKPGASVKVSCKASGYLFTNYWLGWIKQAPGQGLEWIGDIYPGGDYIVYNEKFKGKATLTADTSISTAYMELSRLRSDDTAVYYCARPNLPGDYWGQGTTVTVSS VL: DIVMTQSPLSLPVTPGEPASISCRSSKSLLHSNAITYLYWYLQKPGQSPQLLIYQVSNLASGVPDRFSGSGSGTDFTLKISRVEAEDVGVYYCGQNLELPWTFGGGTKVEIK", "pKd": 8.89}

Which pKd is reported for this binder? 147H 3669 (antibody, V domains shown) VH: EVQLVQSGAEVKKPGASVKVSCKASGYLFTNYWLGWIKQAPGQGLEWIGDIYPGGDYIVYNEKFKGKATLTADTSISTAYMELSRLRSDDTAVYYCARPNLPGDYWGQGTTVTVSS VL: DIVMTQSPLSLPVTPGEPASISCRSSKSLLHSNAITYLYWYLQKPGQSPQLLIYQVSNLASGVPDRFSGSGSGTDFTLKISRVEAEDVGVYYCAQNLELPWTFGGGTKVEIK 8.06

Follow-up item: 147H 3808 (antibody, V domains shown) VH: EVQLVQSGAEVKKPGASVKVSCKASGYTFTNYWLGWIKQAPGQGLEWIGDIYPGGDYIVYNEKFKGKATLTADTSISTAYMELSRLRSDDTAVYYCARPNLPKDHWGQGTTVTVSS VL: DIVMTQSPLSLPVTPGEPASISCRSSKSLLHSNAITYLYWYLQKPGQSPQLLIYQVSNLASGVPDRFSGSGSGTDFTLKISRVEAEDVGVYYCGQYLELPWTFGGGTKVEIK 9.12
